The molecules listed here are annotated with their viability, T/C.
System: 377384-186-R-J1-PDC complex spheroid viability
Test: Anticancer human tumor 377384-186-R-J1-PDC patient-derived pancreatic carcinoma cell line growth inhibition [RAS]
Details: second compound 0.03 µM; first compound 0.1 µM; hits give low values
measured metric: viability, T/C (%)

[
  {
    "molecule": "Cc1nc(N2CCC3(CC2)COC(C)C3N)c(CO)nc1Sc1ccnc(N)c1Cl (configuration not stated) + CCn1c(-c2cccnc2C(C)OC)c2c3cc(ccc31)N1CCOC(CC(NC(=O)C(C(C)C)N(C)C(=O)C3(F)CCN(C(=O)C#CC(C)(C)N(C)C)CC3)C(=O)N3CCCC(N3)C(=O)OCC(C)(C)C2)C1",
    "measurement": 87.3
  },
  {
    "molecule": "CCC(CC)c1cc(NC2CCC(N)C2)n2nccc2n1 (configuration not stated) + CCn1c(-c2cccnc2C(C)OC)c2c3cc(ccc31)N1CCOC(CC(NC(=O)C(C(C)C)N(C)C(=O)C3(F)CCN(C(=O)C#CC(C)(C)N(C)C)CC3)C(=O)N3CCCC(N3)C(=O)OCC(C)(C)C2)C1",
    "measurement": 99
  }
]

---

Tested on: 377384-186-R-J1-PDC complex spheroid viability
Experiment: Anticancer human tumor 377384-186-R-J1-PDC cell line growth inhibition [RAS];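 note: spheroids exposed to compounds for seven days before readout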
Settings: second compound 1 µM; first compound 0.00316 µM; hits give low values
Binary label based on viability, T/C with cut-off 4%: below gives t, not below gives f.

[
  {
    "molecule": "C=CC(=O)Nc1cc(Nc2nccc(-c3cn(C)c4ccccc34)n2)c(OC)cc1N(C)CCN(C)C + C#Cc1c(F)ccc2cc(O)cc(-c3ncc4c(N5CC6CCC(C5)N6)nc(OCC56CCCN5CC(F)C6)nc4c3F)c12",
    "category label": "t"
  },
  {
    "molecule": "CCN1CCN(Cc2ccc(Nc3ncc(F)c(-c4cc(F)c5nc(C)n(C(C)C)c5c4)n3)nc2)CC1 + C=CC(=O)N1CCN(c2nc(OCC3CCCN3C)nc3c(F)c(-c4nc(N)cc(C)c4C(F)(F)F)c(Cl)cc23)C(C)C1",
    "category label": "f"
  },
  {
    "molecule": "O=C(c1ccc(F)c(F)c1Nc1ccc(I)cc1F)N1CC(O)([C@@H]2CCCCN2)C1 + C=CC(=O)N1CCN(c2nc(OCC3CCCN3C)nc3c(F)c(-c4nc(N)cc(C)c4C(F)(F)F)c(Cl)cc23)C(C)C1",
    "category label": "f"
  },
  {
    "molecule": "Nc1ccn(C2OC(CO)C(O)C2(F)F)c(=O)n1 (stereo unspecified) + C#Cc1c(F)ccc2cc(O)cc(-c3ncc4c(N5CC6CCC(C5)N6)nc(OCC56CCCN5CC(F)C6)nc4c3F)c12",
    "category label": "t"
  },
  {
    "molecule": "CC(C)n1nc(-c2ccc3oc(N)nc3c2)c2c(N)ncnc21 + C=CC(=O)N1CCN(c2nc(OCC3CCCN3C)nc3c(F)c(-c4nc(N)cc(C)c4C(F)(F)F)c(Cl)cc23)C(C)C1",
    "category label": "f"
  },
  {
    "molecule": "C=CC(=O)N1CCN(c2nc(OCC3CCCN3C)nc3c(F)c(-c4nc(N)cc(C)c4C(F)(F)F)c(Cl)cc23)C(C)C1 (stereo unspecified) + C#Cc1c(F)ccc2cc(O)cc(-c3ncc4c(N5CC6CCC(C5)N6)nc(OCC56CCCN5CC(F)C6)nc4c3F)c12",
    "category label": "t"
  }
]
